FYI, the data here is from ChEMBL document CHEMBL4673219.

test: Cytotoxicity against human HFF-1 cells assessed as cell growth inhibition by MTT assay; type: cell-based
Measured parameter: GI50

CCCCCCCC(=O)Nc1nc2[nH]c(CN3CCN(Cc4cccc(F)c4)CC3)c(CN3CCN(Cc4cccc(F)c4)CC3)c2c(=O)[nH]1: > 10 µM

Next:
INPUT: Entry Nc1nc2[nH]c(CN3CCN(c4cc(Cl)cc(Cl)c4)CC3)c(CN3CCN(c4cc(Cl)cc(Cl)c4)CC3)c2c(=O)[nH]1 has what GI50?
OUTPUT: > 10 µM

###

assay: Terminal half life in Sprague-Dawley rat at 10 mg/kg, po measured up to 24 hrs by LC-MS/MS analysis; format: ADME, organism-based; details: in vivo, read-out: beta t1/2
Measured parameter: half-life

INPUT: Record request: half-life value, item CCCCCCCC(=O)Nc1nc2[nH]c(CN3CCN(Cc4cccc(F)c4)CC3)c(CN3CCN(Cc4cccc(F)c4)CC3)c2c(=O)[nH]1
OUTPUT: 1.66 h
